Reference source for all entries: patent EP4722219A1

# Test system: ERα (Homo sapiens, UniProt P03372)
# Sequence (P03372 whole entry): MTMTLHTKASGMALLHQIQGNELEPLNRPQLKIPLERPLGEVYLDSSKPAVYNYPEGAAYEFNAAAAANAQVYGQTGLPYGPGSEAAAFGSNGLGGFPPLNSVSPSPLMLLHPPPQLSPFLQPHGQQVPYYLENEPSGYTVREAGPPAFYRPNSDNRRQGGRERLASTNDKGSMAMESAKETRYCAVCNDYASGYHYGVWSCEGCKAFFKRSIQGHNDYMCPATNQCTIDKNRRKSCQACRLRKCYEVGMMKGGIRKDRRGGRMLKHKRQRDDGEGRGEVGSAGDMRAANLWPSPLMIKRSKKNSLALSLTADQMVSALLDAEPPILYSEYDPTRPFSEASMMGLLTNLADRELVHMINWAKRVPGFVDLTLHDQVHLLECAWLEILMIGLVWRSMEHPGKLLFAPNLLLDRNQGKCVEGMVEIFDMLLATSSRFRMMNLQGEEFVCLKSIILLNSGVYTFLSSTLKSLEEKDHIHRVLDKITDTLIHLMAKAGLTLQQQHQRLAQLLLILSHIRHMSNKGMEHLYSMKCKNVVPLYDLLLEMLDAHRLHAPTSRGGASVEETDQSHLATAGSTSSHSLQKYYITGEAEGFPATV
# Protocol summary: ERα degradation in MCF-7 cells (Western blot)
# Assay type: cell-based
# Design: host or cells: MCF-7
# Assay conditions: 10nM, 4 hours
Field: Degradation rate of ERα in MCF-7 cells (%). Provide a value for each of the molecules that follow.
Please reply with the bare figure in % and do not write the unit itself.

Supply Degradation rate of ERα in MCF-7 cells (%) value. Item: Cn1c(=O)n(C2CCC(=O)NC2=O)c2ccc3c(c21)C1(CCN(C2CCC4(CC2)CN(c2ccc([C@@H]5c6ccc(O)cc6CC[C@@H]5c5ccccc5)cc2)C4)CC1)CO3 (stereo partly drawn) 7

Supply Degradation rate of ERα in MCF-7 cells (%) value. Item: O=C1CCC(N2Cc3c(ccc4c3OCC43CCC4(CC3)CN(C3CCC5(CC3)CCN(c3ccc([C@@H]6c7ccc(O)cc7CC[C@@H]6c6ccccc6)cc3)CC5)C4)C2=O)C(=O)N1 (stereo partly drawn) 71

Supply Degradation rate of ERα in MCF-7 cells (%) value. Item: O=C1CCC(N2Cc3c(ccc4c3OCC43CCC4(CCN(C5CCC6(CC5)CCN(c5ccc([C@@H]7c8ccc(O)cc8CC[C@@H]7c7ccccc7)cc5)CC6)CC4)CC3)C2=O)C(=O)N1 (stereo partly drawn) 62
